Population Healthy Nuclei (%) values, listed per item
# Tested on: HEK-293T
# ASSAY_COMMENT: Multiplex assay against HEK293T
# Type: toxicity, cell-based
# APPLIED_CONDITIONS: human, 12 h, 10 µM, compound concentration 10 uM, replicate 1
Quick reminder: number only, in %, skip the unit.

// below: answered molecules
MOLECULE | TARGET_OF_ASSAY | Population Healthy Nuclei (%)
CCC(=O)OCC(=O)[C@@]1(OC(=O)CC)[C@@H](C)C[C@H]2[C@@H]3CCC4=CC(=O)C=C[C@]4(C)[C@@]3(Cl)[C@@H](O)C[C@@]21C [BECLOMETHASONE DIPROPIONATE] | HEK-293T | 66
C[C@@H]1CC(=O)Nc2cccc(-c3ccc4c(c3)c(-c3cnn(C)c3)nn4C)c2N1 | HEK-293T | 74
OCCCNc1cc(-c2ccnc(Nc3cccc(Cl)c3)n2)ccn1 | HEK-293T | 55
CC(C)(C)c1ccc(CSc2cnn(C(C)(C)C)c(=O)c2Cl)cc1 | HEK-293T | 77
Cc1nn(C)c2nc(NNC(=O)Nc3cc(Cl)nc(Cl)c3)cc(C(C)C)c12 | HEK-293T | 61

Read the entry COc1cc(Nc2ncc3c(n2)-c2ccc(Cl)cc2C(c2c(F)cccc2OC)=NC3)ccc1C(=O)O and write its reported Population Healthy Nuclei (%).
74

Read the entry Nc1nc(-c2ccco2)c2cnn(Cc3ccccc3F)c2n1 and write its reported Population Healthy Nuclei (%).
73

Read the entry CCc1nn2c(C)cc(C)nc2c1Cc1ccc(-c2nnc(C3CCNCC3)o2)cc1 and write its reported Population Healthy Nuclei (%).
68

----------
# System: HEK-293T
# ASSAY_COMMENT: Multiplex assay against HEK293T
# Type: toxicity, cell-based
# APPLIED_CONDITIONS: human, 48 h, 10 µM, compound concentration 10 uM, replicate 1
RECORDED_ENDPOINT: Population Mitotic Cells (%)
Quick reminder: number only, in %, skip the unit.

COMPOUND | RECORDED_ENDPOINT | NUMERIC_READOUT
COC(c1ccccc1)(c1ccccc1)[C@H](Oc1nc(C)cc(C)n1)C(=O)O | Population Mitotic Cells (%) | 73
O=c1nc2[nH]c3ccccc3nc-2c(=O)[nH]1 | Population Mitotic Cells (%) | 70

Read the entry O=c1ccc2ccc(OCCCCN3CCN(c4cccc5sccc45)CC3)cc2[nH]1 and write its reported Population Mitotic Cells (%).
6

----------
Population Normal (%) values, listed per item
# Test system: Fibroblast
# ASSAY_COMMENT: Multiplex assay against human fibroblast
# Type: toxicity, cell-based
# APPLIED_CONDITIONS: 24 h, 10 µM, compound concentration 10 uM, replicate 1
Quick reminder: number only, in %, skip the unit.

// below: answered molecules
MOLECULE | TARGET_OF_ASSAY | RECORDED_ENDPOINT | NUMERIC_READOUT
CC(C)C[C@H](CO)Nc1nc(S[C@@H](C)c2ccccc2)nc2nc(N)sc12 | Fibroblast | Population Normal (%) | 98
COc1cc2nc(N3CCN(C(=O)c4ccco4)CC3)nc(N)c2cc1OC.Cl [PRAZOSIN HYDROCHLORIDE] | Fibroblast | Population Normal (%) | 96

Let's switch to this molecule now.
Return reported Population Normal (%) for target or system Fibroblast, item COC(c1ccccc1)(c1ccccc1)[C@H](Oc1nc(C)cc(C)n1)C(=O)O .
92
